# Tested on: Plasmodium berghei
# Test: Screen against P. berghei liver stage (PbLuc), transformed with Luciferase, at 10uM
# Assay type: functional, HepG2
# Assay conditions: tested at 10 uM
Among all 69,000 compounds or so, about 8,600 (12%) showed an effect of 50% or more. Shown is part of a subset that was picked to be rich in strong results.
The entries below are paired with their reported INHIBITION.
Property name: INHIBITION (%)

{"columns": ["Molecule", "Study target", "Property name", "Endpoint value"],
 "data": [
  ["Cc1cccc2c(CCNS(=O)(=O)C3CCOC3)c[nH]c12 (stereo not drawn)", "Plasmodium berghei", "INHIBITION", 39.2],
  ["Cc1cccc2c(CCNC(=O)NCC[S+](C)[O-])c[nH]c12 (stereo not drawn)", "Plasmodium berghei", "INHIBITION", 26.4],
  ["COc1c(Br)cccc1CCNC(=O)c1ncoc1C", "Plasmodium berghei", "INHIBITION", -53.1]
]}

----------
# Tested on: Plasmodium berghei
# Test: Screen against P. berghei liver stage (PbLuc), transformed with Luciferase, at 10uM
# Type: functional, HepG2
# Assay conditions: tested at 10 uM
About 8,600 (12%) of roughly 69,000 compounds showed an effect of 50% or more. What follows is part of a selection rich in strong results, with near analogues and random picks from the rest.
Entries are sorted into classes by INHIBITION as follows: LOW = under 10%, MEDIUM = from 10% up to 40%, HIGH = 40% and over

{"columns": ["Molecule", "Assigned category"],
 "data": [
  ["Cc1ccsc1CN(CCN(C)C)C(=O)c1ccccc1C#N", "MEDIUM"],
  ["Cn1ccnc1CN1CCC2(CC1)CC(NC(=O)c1ccccn1)CO2 (stereo unspecified)", "MEDIUM"],
  ["COC(=O)c1ccccc1C(=O)N(CCN(C)C)Cc1sccc1C", "LOW"],
  ["c1ccc(OCc2n[nH]c3c2CN(Cc2cccs2)C3)nc1", "LOW"],
  ["Cn1c(N2CCOCC2)nc2cc(C(=O)N3CCC(O)(CO)C3)ccc21 (stereo unspecified)", "HIGH"],
  ["COc1cc(N2CCC3(CC2)CC(N2CCN(C)CC2)CO3)ncn1 (stereo unspecified)", "MEDIUM"],
  ["c1ccc(-c2ncc3c(n2)C2(CCN(c4ncccn4)C2)COC3)cc1 (stereo unspecified)", "LOW"],
  ["CC(=O)N1CCO[C@@H]2CN(C(=O)c3cc(C)oc3C)CC[C@@H]2C1", "MEDIUM"],
  ["O=C(CCN1CCOC(CNc2cccnn2)C1)NC1CCCCC1 (stereo unspecified)", "LOW"],
  ["CSCc1nc(CNC(=O)c2cnn(C(C)C)c2)cs1", "HIGH"],
  ["c1cnc(N2CCC3(COCc4cnc(-c5cccnc5)nc43)C2)nc1 (stereo unspecified)", "HIGH"],
  ["c1csc(CN2Cc3[nH]nc(COCC4CC4)c3C2)c1", "HIGH"],
  ["CN(C)C(=O)CN1CCC2(COCc3cnc(-c4ccccc4)nc32)C1 (stereo unspecified)", "HIGH"],
  ["CN1CCC(N(CCc2ccccc2)C(=O)c2ccc(CO)cc2)CC1", "MEDIUM"],
  ["Cc1ccc(S(=O)(=O)c2ncccc2CN2CCCC2)cc1", "HIGH"],
  ["Cn1ccnc1CN1CCOC(Cc2ccccc2)C1 (stereo unspecified)", "LOW"],
  ["O=C(c1cccnc1N1CCN(CCO)CC1)N1CCCC1", "HIGH"],
  ["CN(C)Cc1n[nH]c2c1CCN(Cc1cccs1)C2", "MEDIUM"],
  ["Cc1nc2c(N(C)Cc3ccnn3C)nc(N)nc2n1C", "MEDIUM"],
  ["c1ccc(C(CC2CN(Cc3c[nH]cn3)CCO2)c2ccccc2)cc1 (stereo unspecified)", "HIGH"],
  ["O=C(NCCC1CN(Cc2c[nH]cn2)CCO1)c1ccccc1O (stereo unspecified)", "MEDIUM"],
  ["CN1CCC(N(CCc2ccccc2)C(=O)c2ccc(C#N)cc2)CC1", "HIGH"],
  ["Cn1cc2c(n1)C(COCC1CC1)CN(Cc1ccccn1)C2 (stereo unspecified)", "MEDIUM"],
  ["O=C(C1CCC1)N1CCC2(COCc3cnc(-c4cccnc4)nc32)C1 (stereo unspecified)", "LOW"],
  ["O=C(CCOc1ccccc1F)NC1CCCN(c2ccccn2)C1 (stereo unspecified)", "LOW"],
  ["OCCOCc1n[nH]c2c1CN(Cc1ccccn1)C2", "MEDIUM"],
  ["Cc1ccc(S(=O)(=O)c2ncccc2CN2CCN(CCO)CC2)cc1", "HIGH"],
  ["CN(C)C(=O)CN1CCC2(COCc3cnc(N4CCOCC4)nc32)C1 (stereo unspecified)", "MEDIUM"],
  ["Cc1ccc(S(=O)(=O)c2ncccc2CN2CCCCC2)cc1", "HIGH"],
  ["O=C(c1nc2c(o1)CN(CC1CCC1)C2)N1CCCC1", "LOW"],
  ["CC(C)(C)CC(NC(=O)N1CCS(=O)(=O)CC1)C(F)(F)F (stereo unspecified)", "LOW"],
  ["CN(C)CCN(Cc1ccccc1)C(=O)C1=NNC(=O)CC1", "MEDIUM"],
  ["Cc1nc(C(=O)N2CCCC(c3ccc4sc(N)nc4n3)C2)co1 (stereo unspecified)", "LOW"],
  ["COc1ccccc1NC(=O)C1(c2ccccc2)CCOCC1", "LOW"],
  ["CC(C)CNc1nccc(-c2cnc3sc(Cl)cn3c2=O)n1", "LOW"],
  ["Cc1ccsc1CN(CCN(C)C)C(=O)C1=NNC(=O)CC1", "HIGH"],
  ["COCc1n[nH]c2c1CN(Cc1ccccn1)C2", "HIGH"],
  ["O=C(NC1CC1)N1CCCC2(CCCCN2)C1 (stereo unspecified)", "MEDIUM"],
  ["CC(=O)NC(=O)C1(CCCc2ccncc2)CCN1 (stereo unspecified)", "MEDIUM"],
  ["Cc1ccc(C(=O)N2CCN(CC(C)O)CC2)cc1S(C)(=O)=O (stereo unspecified)", "LOW"],
  ["O=C(NCCC1CN(Cc2c[nH]cn2)CCO1)Nc1ccccc1 (stereo unspecified)", "LOW"]
]}

Origin of measurements: ChEMBL document CHEMBL4513216
